Origin of the recorded values: patent US20200055939A1

# study.target: T1, huMICA*008 alpha 3-his (human)
# T1 construct: whole construct entry: GS, alpha 3 domain (Thr204-Ser297), GNS, His8; also the construct of the FPOP experiment; also called MICA008.His; MICA*008 alpha3 construct
# T1 chain: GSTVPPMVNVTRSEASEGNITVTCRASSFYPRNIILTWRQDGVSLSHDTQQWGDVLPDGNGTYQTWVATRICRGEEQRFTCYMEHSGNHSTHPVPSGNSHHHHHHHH
# test: SPR, Biacore 8K, antibody on Protein A chip
Hi there, I'd appreciate the recorded Kd for every entry that follows.
# include the unit after the value

Need Kd of 1D5v17 (antibody, IgG1, V domains shown, humanized variant of 1D5) VH: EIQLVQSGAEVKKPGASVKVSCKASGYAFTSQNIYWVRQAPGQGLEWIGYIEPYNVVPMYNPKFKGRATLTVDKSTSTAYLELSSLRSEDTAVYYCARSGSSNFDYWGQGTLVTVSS VL: DIQMTQSPSSLSASVGDRVTITCSASSSISSHYLHWYQQKPGKSPKLLIYRTSNLASGVPSRFSGSGSGTDYTLTISSLQPEDFATYYCQQGSSLPLTFGQGTKVEIK , thanks.
0.64 nM

Need Kd of 1D5v26 (antibody, IgG1, V domains shown, humanized variant of 1D5) VH: EVQLVQSGAEVKKPGASVKVSCKASGYAFTSQNIYWVRQAPGQGLEWIGYIEPYNVVPMYNPKFKGRVTITRDKSTSTAYLELSSLRSEDTAVYYCARSGSSNFDYWGQGTLVTVSS VL: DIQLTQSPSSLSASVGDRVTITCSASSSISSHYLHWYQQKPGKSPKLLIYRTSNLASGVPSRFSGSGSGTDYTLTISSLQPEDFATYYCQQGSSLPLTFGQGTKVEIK , thanks.
3.12 nM

Need Kd of 1D5v16 (antibody, IgG1, V domains shown, humanized variant of 1D5) VH: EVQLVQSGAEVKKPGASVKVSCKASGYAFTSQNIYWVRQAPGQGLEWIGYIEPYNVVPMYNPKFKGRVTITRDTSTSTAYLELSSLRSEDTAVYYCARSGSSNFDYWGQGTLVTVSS VL: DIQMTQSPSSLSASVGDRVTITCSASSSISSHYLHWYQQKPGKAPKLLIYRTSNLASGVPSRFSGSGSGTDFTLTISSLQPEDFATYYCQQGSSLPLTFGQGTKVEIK , thanks.
3.21 nM
